# target-entity: human TrkA on CellSensor TrkA-NFAT-bla CHO-K1 cells (human, UniProt P04629 33-796)
# Sequence (P04629 33-796 limits assumed, form in doubt): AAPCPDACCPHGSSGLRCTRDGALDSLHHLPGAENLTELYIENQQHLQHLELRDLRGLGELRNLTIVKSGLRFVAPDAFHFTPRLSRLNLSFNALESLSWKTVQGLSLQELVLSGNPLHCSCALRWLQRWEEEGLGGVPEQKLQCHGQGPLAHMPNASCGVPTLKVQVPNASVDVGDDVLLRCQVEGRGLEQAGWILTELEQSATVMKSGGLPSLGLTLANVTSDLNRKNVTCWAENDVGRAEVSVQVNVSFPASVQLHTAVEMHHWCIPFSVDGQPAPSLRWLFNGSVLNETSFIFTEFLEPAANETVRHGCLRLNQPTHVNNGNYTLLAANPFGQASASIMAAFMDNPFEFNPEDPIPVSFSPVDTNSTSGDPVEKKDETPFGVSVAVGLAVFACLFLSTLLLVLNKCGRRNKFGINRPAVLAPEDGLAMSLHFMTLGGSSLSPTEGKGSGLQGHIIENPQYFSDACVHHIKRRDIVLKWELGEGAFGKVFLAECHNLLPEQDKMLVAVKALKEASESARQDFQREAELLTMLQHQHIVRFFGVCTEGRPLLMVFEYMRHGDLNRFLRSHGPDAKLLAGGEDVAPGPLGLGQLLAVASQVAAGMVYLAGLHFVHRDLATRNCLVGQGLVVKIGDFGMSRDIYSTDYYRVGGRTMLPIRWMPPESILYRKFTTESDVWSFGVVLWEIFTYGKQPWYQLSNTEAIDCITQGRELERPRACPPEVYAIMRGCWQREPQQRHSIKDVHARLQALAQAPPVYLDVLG
# experiment: cell-based or functional assay
measure-name: NFAT IC50 (nM)
One number for each entry, in nM.

[
  {
    "binder": "PHD49-21 (antibody, V domains shown) VH: QVQLVQSGAEVKKPGSSVKVSCKASGFTFSSYWIQWVRQAPGQGLEWIGAIYTGDGDTIYTQKFQGRATITTDESTSTAYMELSSLRSEDTAVYYCARNYHYQAWFDYWGQGTLVTVSS VL: DIQMTQSPSSLSASVGDRVTITCRASSSVSYLYWYQQKPGKAPKPLIYLTSDLASGVPSRFSGSGSGTDYTLTISSLQPEDFATYYCQQWSSNPLTFGQGTKLEIK",
    "NFAT IC50 / nM": 124
  }
]

Now for a further binder.
Q. What does the data say about its NFAT IC50? Entry: PHD49-05 (antibody, V domains shown) VH: QVQLVQSGAEVKKPGSSVKVSCKASGYTFSSHWIQWVRQAPGQGLEWIGAIYPGDDDTIYTQKFQGRATITTDKSTSTAYMELSSLRSEDTAVYYCARNYDYQAWFAYWGQGTLVTVSS VL: DIQMTQSPSSLSASVGDRVTITCRASSSVSYLYWYQQKPGKAPKPLIYLTSSLASGVPSRFSGSGSGTDYTLTISSLQPEDFATYYCQQWSSNPLTFGQGTKLEIK
A. 170
